Here the recorded R0 is given for each entry.
- ASSAY_TARGET: T1, rat MuSK (rat, UniProt Q62838 22-494, limits assumed)
- T1 construct: Coated on Biacore chip (200RU) or ELISA plate
- T1 sequence (looked up): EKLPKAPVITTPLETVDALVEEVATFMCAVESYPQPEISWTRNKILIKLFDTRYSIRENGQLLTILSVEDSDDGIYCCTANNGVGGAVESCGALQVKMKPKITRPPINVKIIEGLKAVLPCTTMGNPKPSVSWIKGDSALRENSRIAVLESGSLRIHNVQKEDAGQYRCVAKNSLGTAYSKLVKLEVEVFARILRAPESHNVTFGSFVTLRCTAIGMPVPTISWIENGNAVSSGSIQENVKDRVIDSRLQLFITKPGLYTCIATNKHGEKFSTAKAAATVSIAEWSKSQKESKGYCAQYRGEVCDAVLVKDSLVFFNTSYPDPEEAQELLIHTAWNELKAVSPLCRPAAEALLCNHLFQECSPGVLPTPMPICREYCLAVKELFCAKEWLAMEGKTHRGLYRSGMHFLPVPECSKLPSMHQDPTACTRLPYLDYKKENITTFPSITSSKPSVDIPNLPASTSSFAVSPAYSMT
- METHOD: Biacore, MuSK on chip (200RU), 66.7 nM mAb, dissociation pH 7.4
State the answer as a number, implicitly in RU.

- BINDER: "3B2g1m4 (antibody, human IgG1, V domains shown, human IgG1-LALA backbone; produced in HEK293 cells) VH: EVQLLESGGGLVQPGGSLRLSCAASGFTFSDYGMSWVRQAPGKGLEWVSAIPWQGGSTYYKESVKGRFTISRDNSKNTLYLQMNSLRAEDTAVYYCAKRSGRIAFGALDAWGQGTLVTVSS VL: QTVVTQEPSFSVSPGGTVTLTCGLSSGSVTSSNYPDWYQQTPGQAPRTLIYSTDSRHSGVPDRFSGSILGNKAALTITGAQADDESDYYCGLYMYSGSKNYVFGGGTKLTVL"
  UNIT_LABEL: "RU"
  R0: 155
- BINDER: "3B2g2m4 (antibody, human IgG1, V domains shown, human IgG1-LALA backbone; produced in HEK293 cells) VH: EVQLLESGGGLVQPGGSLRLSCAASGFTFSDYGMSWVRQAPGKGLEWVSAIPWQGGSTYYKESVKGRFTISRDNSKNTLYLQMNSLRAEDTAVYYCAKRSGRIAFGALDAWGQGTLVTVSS VL: QTVVTQEPSFSVSPGGTVTLTCGLSSGSVTSSNYPDWYQQTPGQAPRTLIYSTDSRHSGVPDRFSGSILGNKAALTITGAQADDESDYYCGLYSYSGSKNYVFGGGTKLTVL"
  UNIT_LABEL: "RU"
  R0: 158
- BINDER: "3B2g1m2 (antibody, human IgG1, V domains shown, human IgG1-LALA backbone; produced in HEK293 cells) VH: EVQLLESGGGLVQPGGSLRLSCAASGFTFSDYGMSWVRQAPGKGLEWVSAIPGSGGSTYYKESVKGRFTISRDNSKNTLYLQMNSLRAEDTAVYYCAKRSGRIAFGALDAWGQGTLVTVSS VL: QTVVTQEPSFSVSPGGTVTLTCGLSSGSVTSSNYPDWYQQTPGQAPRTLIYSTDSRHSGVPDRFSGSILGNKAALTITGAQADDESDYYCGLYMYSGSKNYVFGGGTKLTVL"
  UNIT_LABEL: "RU"
  R0: 125

// below: R0 requested for another binder
Entry 3B2 (antibody, V domains shown, human IgG1 with the LALA mutations (L234A, L235A); produced in HEK293 cells; also called 3B2 mAb; parental 3B2 Ab) VH: ELQLVESGGGLVQPGGSLRLSCAASGFTFDDYGMSWVRQAPGKGLEWVSAIPWNGGSTYYKESVKGRFTISRDNAKKTLYLQMNSLKSEDTAVYYCAKRSGRIAFGALDAWGQGTLVTVSS VL: QAVVTQEPSLSVSPGGTVTLTCGLSSGSVTSSNYPDWYQQTPGQAPRGLIYSTDSRHSGVPSRFSGSISGNKAALTITGAQSEDEADYYCGLYMYSGSKNYVFGGGTKLTVL has what R0?
162

The measured values listed here are drawn from patent US20230151091A1.
